The entries below are paired with their reported MIC.
Tested on: Mycoplasma gallisepticum
EXPERIMENTAL DETAILS: MIC, broth-dilution microtiter test, Mycoplasma gallisepticum
Format: cell-based
MEASUREMENT CONTEXT: Mycoplasma gallisepticum; broth-dilution microtiter
Description: The MIC's in Table X were obtained using conventional broth-dilution microtiter tests.

{"COMPOUND": "CCC1OC(=O)CC(O)C(C)C(OC2OC(C)C(O)C(N(C)C)C2O)C(CCOc2nnc(-c3ccccc3)c(-c3ccccc3)n2)CC(C)C(=O)C=CC(C)=CC1COC1OC(C)C(O)C(OC)C1OC (stereo not drawn) [Compound 50]", "MIC": "≤ 0.048 µg/mL"}
{"COMPOUND": "CCC1OC(=O)CC(O)C(C)C(OC2OC(C)C(O)C(N(C)C)C2O)C(CCOc2cc(Cl)cc(Cl)c2)CC(C)C(=O)C=CC(C)=CC1COC1OC(C)C(O)C(OC)C1OC (stereo not drawn) [Compound 40]", "MIC": "< 0.05 µg/mL"}
{"COMPOUND": "CCC1OC(=O)CC(O)C(C)C(OC2OC(C)C(O)C(N(C)C)C2O)C(CCOc2ccc(Oc3ccccc3)cc2)CC(C)C(=O)C=CC(C)=CC1COC1OC(C)C(O)C(OC)C1OC (stereo not drawn) [Compound 47, 20-DH-20-O-(p-Phenoxyphenyl)desmycosin]", "MIC": "< 0.05 µg/mL"}

Just for reference, patent US4443436A is where these values come from.
